# EXPERIMENT: ovarian cancer cell viability with rucaparib, profiling panel, oncology-focused library, rucaparib conditional (AID 1508598)
# CONDITION DETAILS: patient-derived ovarian cancer cells, CellTiter-Glo viability, 144 h; at 0.000305 µM; OCI-P5x cells; without rucaparib; hits give low values
READOUT NAME: viability (%)

{"CPD SMILES": "Nc1nc(Cl)nc2c1ncn2[C@H]1C[C@H](O)[C@@H](CO)O1", "READOUT NAME": "viability", "UNIT TEXT": "%", "VALUE": 108}
{"CPD SMILES": "NC(=O)Nc1sc(-c2ccc(F)cc2)cc1C(N)=O", "READOUT NAME": "viability", "UNIT TEXT": "%", "VALUE": 109}
{"CPD SMILES": "O=c1cc(-c2cccc3c2Sc2ccccc2S3)oc(N2CCOCC2)c1", "READOUT NAME": "viability", "UNIT TEXT": "%", "VALUE": 109}
{"CPD SMILES": "O=c1[nH]c(-c2ccc(C(F)(F)F)cc2)nc2c1CSCC2", "READOUT NAME": "viability", "UNIT TEXT": "%", "VALUE": 103}
